B1: SOAT1 (parent)
chain: GVLILFLTFFAFLHCWLNAFAEML

variants of: B1; experiment: protein stability index of a GFP-peptide fusion (GPS, HEK-293T) (PSI 1-6); higher = more stable; details: c terminus: a fixed tail appended;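 also: lentivirally expressed fusions sorted by FACS into six bins by GFP to DsRed ratio, PSI derived from sequencing read proportions per bin multiplied by bin number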
I'd be grateful if you could share measured protein stability index for these entries.
One number for each entry.

{"columns": ["mutation_name", "readout_kind", "endpoint_value"],
 "data": [
  ["A21P", "protein stability index", 2.29]
]}

Hi! Can you tell me protein stability index for each of these variants?
1. I4P
2. I4K
3. A11D
4. G1R
5. L13I
6. W16T

**Result**
1: 2.26; 2: 1.43; 3: 2.82; 4: 4.47; 5: 2.17; 6: 3.45
